test: Half life in mouse at 143 micromol/kg administered as single dose; assay type: ADME; details: in vivo, dose 143 µmol/kg
endpoint name: half-life (h)
# number only, unit h dropped from output

INPUT: Find the recorded half-life belonging to Cn1cc(C[C@@H](N)C(=O)O)c2ccccc21 [INDOXIMOD] and report it.
OUTPUT: 3

INPUT: Find the recorded half-life belonging to CCOC(=O)[C@@H](Cc1cn(C)c2ccccc12)NC(=O)[C@@H](N)CC(C)C.Cl and report it.
OUTPUT: 2.9

* * *

experiment: Protein binding in cynomolgus monkey plasma; type: ADME, cell-free, Macaca fascicularis; settings: read-out: PPB
endpoint name: fraction unbound
Respond with the number and no other words.

INPUT: Find the recorded fraction unbound belonging to CCOC(=O)[C@@H](Cc1cn(C)c2ccccc12)NC(=O)[C@@H](N)CC(C)C.Cl and report it.
OUTPUT: 0.5
